Reference for the values: PubChem BioAssay (NCI)

Assay Explanation: NCI Yeast Anticancer Drug Screen. Data for the mec2-1 strain (AID 157)
Measurement Setup: S. cerevisiae mec2-1 strain, at 50.0 µM
The panel holds about 79,000 compounds, 15% with a hit somewhere; the sample as a whole holds those more often. Activity calls are given as the source filed them. Rule as the data show it: active = growth inhibition above about 70%; inactive = the rest.
Pick one and only one: y for active, n for inactive

// below: answered compounds
| Compound | Assigned Class |
| --- | --- |
| c1ccc(N=C2SC(c3ccccc3)CN2C23CC4CC(CC(C4)C2)C3)cc1 (configuration not stated) | n |
| CN(C)Cc1cc(C(C)(C)CC(C)(C)C)cc(Br)c1O | n |
| CC(=O)Nc1ccc(/C=N/NC(=O)c2ccc(O)cc2)cc1 | n |
| CC1=NN(C)C(=O)C1 | n |
| O=S(=O)(c1ccc(O)c(Cl)c1)c1ccc(O)c(Cl)c1 | n |

In the following, a different compound is considered.
# lookup: test call for CC(C)COC1CN=NN1/C=C1\CCOC1=O (configuration not stated)
n

---

Assay Explanation: NCI Yeast Anticancer Drug Screen. Data for the cln2 rad14 strain (AID 165);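 also: 0% = growth equal to vehicle treated cultures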
Measurement Setup: S. cerevisiae cln2 rad14 strain, at 50.0 µM, stronger effect = higher value
Description: Growth inhibition of yeast strains with defined genetic alterations is measured as a screen for potential anti-cancer activity. Selected strains with alterations in DNA damage repair or cell cycle control were exposed to compounds and growth inhibition was measured relative to vehicle treated controls. The strain used in this assay is cln2 rad14
This is part of a sample that, as a whole, favours compounds with a hit. Of some 79,000 tested, about 15% had one in any assay.
Measurement Name: growth inhibition (%)
Only the number, expressed in %, is required.

Illustrative cases are given below, each with its answer.
| Molecule | growth inhibition [%] |
| --- | --- |
| Cc1ccc(NC(=O)CCc2nnc3s/c(=C\c4cccc([N+](=O)[O-])c4)c(=O)n23)cc1 | 14 |
| Nc1cnccc1NCC(O)c1ccccc1 (stereo not given) | -15.6 |
| COC1/C=C/OC2(C)Oc3c(C)c(O)c4c(O)c(c(C=NNC(=O)c5ccc(N)cc5)c(O)c4c3C2=O)NC(=O)/C(C)=C/C=C/C(C)C(O)C(C)C(O)C(C)C(OC(C)=O)C1C (stereo not given) | -17.6 |
| COc1cccc(C2SCC(=O)N2c2nncs2)c1OC (stereo not given) | 8.3 |
| Cc1cc(O)cc(C)c1Cl | -21.2 |
| c1ccc(C2OCCO2)c(OCCOc2cc(OCCOc3ccccc3C3OCCO3)c(OCCOc3ccccc3C3OCCO3)cc2OCCOc2ccccc2C2OCCO2)c1 | 0.3 |
| Cc1cc(NN)c2cc3c(cc2n1)OCO3 | -46 |
| ClC1(Cl)C2CCOC21n1cnc2ccccc21 (stereo not given) | 4.95 |

What value of measured growth inhibition is listed for `CC(=O)c1c(P(=O)(OC(C)C)OC(C)C)nn(-c2ccc([N+](=O)[O-])cc2)c1C` ?
-0.95

Moving on to COC1OC2COC(c3ccccc3)OC2C(N=[N+]=[N-])C1O (stereo not given)
-31.2

---

Assay Explanation: NCI Yeast Anticancer Drug Screen. Data for the mec2-1 strain (AID 157)
Measurement Setup: S. cerevisiae mec2-1 strain, at 50.0 µM
The panel holds about 79,000 compounds, 15% with a hit somewhere; the sample as a whole holds those more often. The source made the active and inactive calls. Cut-off read from the data, not from the text of the source: active = growth inhibition above about 70%; inactive = the rest.
Pick one and only one: y (active), n (inactive)

// below: answered compounds
| Compound | Assigned Class |
| --- | --- |
| Nc1ccn(C2OC(CO)C(O)C2Br)c(=O)n1 (configuration not stated) | n |
| COc1cccc(C=Nc2ccc(N(C)C)cc2)c1O.COc1cccc(C=Nc2ccc(N(C)C)cc2)c1O.[Co] | n |
| CC(C)(C)CC(C)(C)c1c(O)cc(O)cc1Cl | y |
| O=C(/C=C\c1ccc([N+](=O)[O-])cc1)c1ccccc1 | n |
| NC(=O)CCCc1ccc2oc3ccccc3c2c1 | n |
| NC(CSS(=O)(=O)O)=NCC1CC2CCC1C2 (configuration not stated) | n |

# lookup: test call for COc1ccc(C2Oc3cc(OC)c(OC)cc3C2CCl)cc1OC (configuration not stated)
n

Moving on to CC(=O)NCC1(c2ccccc2)CCN(CC2COc3ccccc3O2)CC1 (configuration not stated)
n

Moving on to `CC1=C(C)C(=O)c2c(OC(=O)c3ccccc3)ccc(OC(=O)c3ccccc3)c2C1=O`
n

Moving on to `CC1(C)OC(=O)c2c(cc(N3CCOCC3)oc2=O)O1`
n

Moving on to CN1C(=O)C(O)C[C@@H]1c1ccc(F)cc1 (some centres not stated)
n

Moving on to `CCOc1ccccc1C(=O)Nc1cc(Cl)ccc1Cl`
n

---

// reported growth inhibition for each item listed
Assay Explanation: NCI Yeast Anticancer Drug Screen. Data for the cln2 rad14 strain (AID 165);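 also: 0% = growth equal to vehicle treated cultures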
Measurement Setup: S. cerevisiae cln2 rad14 strain, at 50.0 µM, stronger effect = higher value
This is part of a sample that, as a whole, favours compounds with a hit. Of some 79,000 tested, about 15% had one in any assay.
Only the number, expressed in %, is required.

What value of measured growth inhibition is listed for `CC(=O)N(C)c1cccc2ccccc12` ?
-4.65

Moving on to `CCCCCCCCCCCC(=O)OCCSC#N`
-21.4

Moving on to `CCS(=O)(=O)c1ccc(NC(=O)OCc2ccccc2)cc1`
-4.4

Moving on to `COc1ccc(-c2cc(C(=O)O)c3cccc(C)c3n2)cc1`
36.1

Moving on to `COC(=O)Nc1nc2ccc(SC)cc2c(=O)[nH]1`
6.45

Moving on to `CCCCc1c2c(nc3c1CCc1cc4c(nc1-3)-c1nc3c(c(CCCC)c1CC4)CCC/C3=C\c1ccccc1)/C(=C/c1ccccc1)CCC2`
5.4

---

// reported growth inhibition for each item listed
Assay Explanation: NCI Yeast Anticancer Drug Screen. Data for the bub3 strain (AID 167)
Measurement Setup: S. cerevisiae bub3 mutant strain, at 50.0 µM, stronger effect = higher value
The panel holds about 79,000 compounds, 15% with a hit somewhere; the sample as a whole holds those more often.
Only the number, expressed in %, is required.

Illustrative cases are given below, each with its answer.
| Compound | Unit Abbreviation | growth inhibition |
| --- | --- | --- |
| CC(C)CCCC(C)C1CCC2C3CC=C4CC(P(=O)(c5ccccc5)c5ccccc5)CCC4(C)C3CCC12C (stereo unspecified) | % | 5.75 |
| ONc1cnc2ccccc2n1 | % | -4.8 |
| O=COCc1ccc(Cl)cc1Cl | % | -1.35 |
| CC(C)CC(C)C | % | 13.4 |
| O=[N+]([O-])c1cc2c(c([N+](=O)[O-])c1)Nc1cc(Cl)ccc1O2 | % | 4.4 |

What value of measured growth inhibition is listed for `CC(=O)CC(=O)Nc1cccc(C)n1` ?
6.25

Moving on to `Cc1ccc(Nc2ccc(Nc3ccc(C)cc3)c3c2C(=O)c2ccccc2C3=O)cc1`
-8.2

Moving on to O=c1c(-c2ccccc2)nc2ccccc2n1CC1CCCN2CCCC[C@H]12 (stereo partly specified)
22.7

Moving on to N#C/C(=C\c1ccccc1)C(NO)Nc1ccccc1 (stereo unspecified)
6.65

Moving on to `CC(=O)OC(C)(C)[C@@H]1CC[C@H](C)C2=C(C1)[C@@H](C)CC2`
-16.1

Moving on to `C[C@@H]1C(=O)OCC2=C3C[C@@H](CC[C@@]3(C)C=CC2=O)[C@H](C)C(=O)OCC2=C3C[C@H]1CC[C@@]3(C)C=CC2=O`
1.7

---

Assay Explanation: NCI Yeast Anticancer Drug Screen. Data for the mec2-1 strain (AID 157)
Measurement Setup: S. cerevisiae mec2-1 strain, at 50.0 µM, stronger effect = higher value
Compounds without any hit were thinned out: in the full panel of roughly 79,000, 15% have a hit. Calls of active or inactive are those of the source. Rule as the data show it: active = growth inhibition above about 70%; inactive = the rest.
// reported growth inhibition for each item listed

| Molecule | Measurement Name | Reported Measurement |
| --- | --- | --- |
| CC1(C)CC[C@]2(C(=O)O)CC[C@]3(C)C(=CC[C@@H]4[C@@]5(C)CC[C@H](OC6OC(CO)C(O)C(O)C6OC6OC(CO)C(O)C(O)C6O)C(C)(C)[C@@H]5CC[C@]43C)[C@@H]2C1 (stereo partly drawn) | growth inhibition | 86.7% (active) |
| CN1N=C(c2ccccc2)C(C(c2ccccc2[N+](=O)[O-])C2C(=O)N(C)N=C2c2ccccc2)C1=O (stereo not drawn) | growth inhibition | 34.6% (inactive) |
| Cn1c2c(c(=O)n(C)c1=O)CCC(=O)N2 | growth inhibition | 0.7% (inactive) |
| O=C(/C=C/c1ccc2c(c1)OCO2)NCc1ccco1 | growth inhibition | 8.7% (inactive) |
| C[N+]1=C(/C=C/Nc2ccc(Cl)cc2)C(C)(C)c2ccccc21 | growth inhibition | 6.2% (inactive) |
| COc1cc2c(cc1OC)C(=O)/C(=C/c1ccc(N(C)C)cc1)CC2 | growth inhibition | -58% (inactive) |
| CCCCn1cnc2c(SCCNC(=O)N(C)N=O)ncnc21 | growth inhibition | -8.25% (inactive) |
| CCOc1ccccc1C(=O)N(CC)CC | growth inhibition | -3.2% (inactive) |
| Cc1c(C)c2ccc(OC(C)C(=O)O)cc2oc1=O (stereo not drawn) | growth inhibition | 0.8% (inactive) |
| CC(=O)OCc1nc2ncnc(N)c2[nH]1 | growth inhibition | -5.65% (inactive) |

What value of measured growth inhibition is listed for COC(=O)C([O][Ge]([CH3])([CH3])[CH3])c1ccccc1 (stereo not drawn) ?
-15.1% (inactive)

Moving on to O=C1/C(=C/c2ccc(O)cc2)CCC1CNc1ccc(Cl)cc1 (stereo not drawn)
12.6% (inactive)
